- Target desc: melatonin ML1b receptor (Homo sapiens)
- Construct: expressed in transfected cells; membrane homogenates
- Assay notes: Melatonergic receptor binding, 2-[125I]-iodomelatonin, ML1b
- Reported conditions: Table I; NIH-3T3 membranes, 0.2 nM 2-[125I]-iodomelatonin, 37° C. 1 hour
I'd be grateful if you could share measured IC50 for these entries.

For every item in the list below, what is its measured IC50?
1. CC(=O)NCCCc1cccc2nc(-c3ccccc3)oc12
2. CC(C)C(=O)NCCCc1cccc2nc(CCCCc3ccccc3)oc12
3. CCCC(=O)NCCCc1cccc2nc(C)oc12
4. CCC(=O)NCCCc1cccc2nc(C)oc12
5. O=C(NCCCc1cccc2nc(CCCCc3ccccc3)oc12)C1CC1
6. CCCc1nc2cccc(CCCNC(=O)C(C)C)c2o1
7. CCc1nc2cccc(CCCNC(=O)C3CC3)c2o1
8. Cc1nc2cccc(CCCNC(=O)C(C)C)c2o1

0.01 to 0.25 µM
0.01 to 0.25 µM
< 0.01 µM
< 0.01 µM
0.01 to 0.25 µM
0.01 to 0.25 µM
0.01 to 0.25 µM
< 0.01 µM

For each entry beneath this line, provide reported IC50.
1. CCNC(=O)NCCCc1cccc2nc(C)oc12
2. CC(C)c1nc2cccc(CCCNC(=O)C3CC3)c2o1

1: 0.01 to 0.25 µM; 2: > 0.25 µM

---

- Target desc: melatonin ML1b receptor (Homo sapiens)
- Construct: expressed in transfected cells; membrane homogenates
- Assay notes: Melatonergic receptor binding, 2-[125I]-iodomelatonin, ML1b
- Reported conditions: Table II; NIH-3T3 membranes, 0.2 nM 2-[125I]-iodomelatonin, 37° C. 1 hour
pIC50: −log10 of the molar value.
Please respond with reported pIC50 for every item in the list.

[[record]]
compound = "CCc1nc2ccc(-c3ccccc3)c(CCCNC(C)=O)c2o1 [Example 55]"
target_desc = "melatonin ML1b receptor (Homo sapiens)"
recorded_value = "> 8.00"

[[record]]
compound = "CCc1nc2ccc(-c3ccc(F)cc3)c(CCCNC(=O)C3CC3)c2o1 [Example 49]"
target_desc = "melatonin ML1b receptor (Homo sapiens)"
recorded_value = "> 8.00"

[[record]]
compound = "CCc1nc2cc(-c3ccccc3)cc(CCCNC(=O)c3ccccc3)c2o1 [Example 66]"
target_desc = "melatonin ML1b receptor (Homo sapiens)"
recorded_value = "< 6.60"


Field: pIC50. Fill in for each record below.
1. CCc1nc2ccc(-c3ccc(C(F)(F)F)cc3)c(CCCNC(C)=O)c2o1 [Example 50]
2. CCc1nc2cc(-c3ccc(C(F)(F)F)cc3)cc(CCCNC(=O)c3ccccc3)c2o1 [Example 61]

["6.60 to 8.00", "< 6.60"]

Could you report pIC50 for every entry in the following list?
1. CCc1nc2ccc(-c3ccccc3)c(CCCNC(=O)C3CC3)c2o1 [Example 57]
2. CCc1nc2ccc(Br)c(CCCNC(C)=O)c2o1 [Example 42]
3. CCc1nc2cc(-c3ccc(F)cc3)cc(CCCNC(=O)C3CC3)c2o1 [Example 60]

1. > 8.00
2. > 8.00
3. 6.60 to 8.00

---

- Target desc: melatonin ML1b receptor (Homo sapiens, UniProt P49286)
- Construct: expressed in transfected cells; membrane homogenates
- Sequence (P49286 whole entry): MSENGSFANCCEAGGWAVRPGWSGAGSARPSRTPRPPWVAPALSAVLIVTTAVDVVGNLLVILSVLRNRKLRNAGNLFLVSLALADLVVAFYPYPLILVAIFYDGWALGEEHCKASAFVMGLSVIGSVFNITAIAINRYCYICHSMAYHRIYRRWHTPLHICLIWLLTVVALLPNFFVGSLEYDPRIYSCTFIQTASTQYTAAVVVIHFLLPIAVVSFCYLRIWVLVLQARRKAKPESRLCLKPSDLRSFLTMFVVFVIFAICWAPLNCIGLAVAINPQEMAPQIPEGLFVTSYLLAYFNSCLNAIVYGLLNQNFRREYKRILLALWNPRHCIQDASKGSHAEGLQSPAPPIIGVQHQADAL
- Assay notes: Melatonergic receptor binding, 2-[125I]-iodomelatonin, ML1b
- Reported conditions: Table II; NIH-3T3 membranes, 0.2 nM 2-[125I]-iodomelatonin, 37° C. 1 hour
- Experimental: Melatonergic Receptor Binding Activity (a) TME=50 mM Tris buffer containing 12.5 mM MgCl2, and 2 mM EDTA, pH 7.4 at 37° C., with concentrated HCl. (b) Wash buffer: 20 mM Tris base containing 2 mM MgCl2, pH 7.4 at room temperature. […] The compounds of the present invention have affinity for receptors of the endogenous pineal hormone, melatonin, as determined in receptor binding assays described above in Tables I to III for the ML1a and ML1b (human) receptors. […]
pIC50: −log10 of the molar value.
Measurement kind: pIC50

[[record]]
chemical_string = "CCc1nc2cc(-c3ccccc3)cc(CCCNC(C)=O)c2o1"
measurement_kind = "pIC50"
recorded_value = "6.60 to 8.00"

[[record]]
chemical_string = "CCc1nc2ccc(-c3ccco3)c(CCCNC(C)=O)c2o1"
measurement_kind = "pIC50"
recorded_value = "> 8.00"

[[record]]
chemical_string = "CCc1nc2ccc(-c3ccc(OC)cc3)c(CCCNC(=O)c3ccccc3)c2o1"
measurement_kind = "pIC50"
recorded_value = "< 6.60"

[[record]]
chemical_string = "CCc1nc2cc(Br)cc(CCCNC(=O)c3ccccc3)c2o1"
measurement_kind = "pIC50"
recorded_value = "< 6.60"

[[record]]
chemical_string = "CCc1nc2ccc(-c3ccc(F)cc3)c(CCCNC(C)=O)c2o1"
measurement_kind = "pIC50"
recorded_value = "> 8.00"

[[record]]
chemical_string = "CCc1nc2cc(-c3ccc(OC)cc3)cc(CCCNC(=O)c3ccccc3)c2o1"
measurement_kind = "pIC50"
recorded_value = "< 6.60"

[[record]]
chemical_string = "CCc1nc2cc(-c3ccccc3)cc(CCCNC(=O)C3CC3)c2o1"
measurement_kind = "pIC50"
recorded_value = "< 6.60"

[[record]]
chemical_string = "CCc1nc2cc(-c3ccc(F)cc3)cc(CCCNC(=O)c3ccccc3)c2o1"
measurement_kind = "pIC50"
recorded_value = "< 6.60"

[[record]]
chemical_string = "CCc1nc2ccc(-c3ccc(C(F)(F)F)cc3)c(CCCNC(=O)C3CC3)c2o1"
measurement_kind = "pIC50"
recorded_value = "6.60 to 8.00"

[[record]]
chemical_string = "CCc1nc2ccc(C)c(CCCNC(=O)c3ccccc3)c2o1"
measurement_kind = "pIC50"
recorded_value = "6.60 to 8.00"


Okay, here is my list. What is pIC50 for each of these?
1. CCc1nc2cc(-c3ccc(F)cc3)cc(CCCNC(C)=O)c2o1
2. CCc1nc2cc(Br)cc(CCCNC(=O)OC(C)(C)C)c2o1
3. C=Cc1cc(CCCNC(=O)c2ccccc2)c2oc(CC)nc2c1
4. CCc1nc2cc(Br)cc(CCCNC(=O)C3CC3)c2o1
5. CCc1nc2cc(-c3ccc(OC)cc3)cc(CCCNC(C)=O)c2o1

1: 6.60 to 8.00; 2: < 6.60; 3: < 6.60; 4: 6.60 to 8.00; 5: 6.60 to 8.00
